Test system: PC-3
Assay: Antiproliferative activity against human PC-3 cells assessed as inhibition of cell growth
Assay type: functional, cell-based
Measured IC50 of individual entries
Dear colleague, please return just the value in µM, with no unit written.

compound=COc1cc2nc(N3CCN(C(=O)c4ccco4)CC3)nc(N)c2cc1OC assay_target=PC-3 attribute_measured=IC50 reading=11.7

Let us move to another entry and its IC50.
Ask | Reported IC50 for COc1cc2nc(N3CCN(C(=O)c4cn(CCCCOCC(=O)Nc5cccc6c5C(=O)N(C5CCC(=O)NC5=O)C6=O)nn4)CC3)nc(N)c2cc1OC (configuration not stated) : what is it?
Reply | 6.12

###

System: BXPC-3
Experiment: Antiproliferative activity against human BXPC-3 cells assessed as cell growth inhibition
Type: functional, cell-based
attribute measured: pIC50
// pIC50 is dimensionless: -log10 of concentration (M)

Ask | Reported pIC50 for CCS(=O)(=O)Nc1ccc(Oc2ccc(F)cc2F)c(-c2cn(C)c(=O)c3[nH]c(C(=O)NCc4cn(CCOCC(=O)Nc5cccc6c5CN(C5CCC(=O)NC5=O)C6=O)nn4)cc23)c1 (stereo unspecified) : what is it?
Reply | 6.78

###

Biological target: Protein cereblon/Protein deacetylase HDAC6 (Homo sapiens, UniProt Q96SW2+Q9UBN7)
Sequence (Q9UBN7 whole entry): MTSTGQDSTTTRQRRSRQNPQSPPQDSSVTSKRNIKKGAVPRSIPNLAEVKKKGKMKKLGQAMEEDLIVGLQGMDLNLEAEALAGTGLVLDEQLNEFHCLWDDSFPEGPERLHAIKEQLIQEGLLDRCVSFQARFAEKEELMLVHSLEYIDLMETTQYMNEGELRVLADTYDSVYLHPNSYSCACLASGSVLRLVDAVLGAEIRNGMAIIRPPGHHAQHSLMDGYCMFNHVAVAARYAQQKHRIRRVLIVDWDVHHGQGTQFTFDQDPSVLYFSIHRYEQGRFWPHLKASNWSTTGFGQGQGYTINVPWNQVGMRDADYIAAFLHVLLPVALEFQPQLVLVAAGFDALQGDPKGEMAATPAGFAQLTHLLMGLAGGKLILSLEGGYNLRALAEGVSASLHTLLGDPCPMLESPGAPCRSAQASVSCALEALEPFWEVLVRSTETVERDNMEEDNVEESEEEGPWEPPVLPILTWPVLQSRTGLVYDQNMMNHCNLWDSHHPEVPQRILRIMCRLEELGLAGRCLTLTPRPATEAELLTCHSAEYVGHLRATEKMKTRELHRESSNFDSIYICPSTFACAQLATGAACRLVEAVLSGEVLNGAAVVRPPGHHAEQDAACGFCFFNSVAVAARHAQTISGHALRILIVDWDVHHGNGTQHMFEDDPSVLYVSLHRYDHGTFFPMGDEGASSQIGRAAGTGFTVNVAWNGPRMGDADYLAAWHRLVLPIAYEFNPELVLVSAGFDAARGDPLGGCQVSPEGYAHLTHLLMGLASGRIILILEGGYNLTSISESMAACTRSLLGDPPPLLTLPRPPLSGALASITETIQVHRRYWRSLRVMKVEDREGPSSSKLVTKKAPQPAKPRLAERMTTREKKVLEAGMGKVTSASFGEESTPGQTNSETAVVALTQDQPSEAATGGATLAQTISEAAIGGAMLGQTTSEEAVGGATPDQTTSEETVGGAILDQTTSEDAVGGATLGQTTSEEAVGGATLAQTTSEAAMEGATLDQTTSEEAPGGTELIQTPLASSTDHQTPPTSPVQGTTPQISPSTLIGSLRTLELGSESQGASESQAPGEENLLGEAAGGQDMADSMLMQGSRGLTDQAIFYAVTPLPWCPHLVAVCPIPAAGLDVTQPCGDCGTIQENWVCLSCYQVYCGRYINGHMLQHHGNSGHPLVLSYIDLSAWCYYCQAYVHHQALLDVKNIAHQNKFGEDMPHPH
Sequence (Q96SW2 whole entry): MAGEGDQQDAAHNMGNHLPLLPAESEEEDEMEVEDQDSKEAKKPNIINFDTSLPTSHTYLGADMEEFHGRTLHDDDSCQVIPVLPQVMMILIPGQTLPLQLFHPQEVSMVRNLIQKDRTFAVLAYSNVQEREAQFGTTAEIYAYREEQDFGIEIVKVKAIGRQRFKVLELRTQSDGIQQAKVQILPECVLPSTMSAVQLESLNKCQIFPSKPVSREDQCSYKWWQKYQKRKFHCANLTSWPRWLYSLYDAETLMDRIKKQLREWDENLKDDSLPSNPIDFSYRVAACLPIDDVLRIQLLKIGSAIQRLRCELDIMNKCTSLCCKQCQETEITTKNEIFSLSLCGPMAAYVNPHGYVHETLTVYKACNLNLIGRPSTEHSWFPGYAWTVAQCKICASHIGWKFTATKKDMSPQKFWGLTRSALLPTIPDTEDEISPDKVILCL
Experiment: Protac activity at CRBN/HDAC6 in human MM1.S cells incubated for 24 hrs by Immunoblotting analysis
attribute measured: IC50 (nM)
Dear colleague, please return just the value in nM, with no unit written.

Ask | Reported IC50 for CCCCN(Cc1ccc(C(=O)NO)cc1)C(=O)Nc1ccc(NC(=O)CCCc2cn(CCOCCNc3cccc4c3C(=O)N(C3CCC(=O)NC3=O)C4=O)nn2)cc1 (stereo unspecified) : what is it?
Reply | 3.2
